All figures here come from patent US7183306B2.

# melting point listing for each entry below

Example entries and their recorded answers appear below.
COCOc1ccc(-c2cc(S(C)(=O)=O)nn2-c2ccc(OC)cc2)cc1
128 to 128.1 °C
COc1ccc(-n2nc(C#N)cc2-c2ccc(OCCNC(N)=O)cc2)cc1
187 to 190 °C
COc1ccc(-n2nc(OCC(F)F)cc2-c2ccc(OCCNS(C)(=O)=O)cc2)cc1
145 to 145.1 °C
COc1ccc(-n2nc(C3CC3)cc2-c2ccc(OCCNC(N)=O)cc2)cc1
150.8 to 151 °C
CSc1ccc(-n2nc(C(F)F)cc2-c2ccc(OCCNC(N)=O)cc2)cc1
184.3 to 184.7 °C
CCN(C)C(=O)c1cc(-c2ccc(OCCNS(C)(=O)=O)cc2)n(-c2ccc(OC)cc2)n1
106 to 106.3 °C
CCN(C)C(=O)c1cc(-c2ccc(CCNS(C)(=O)=O)cc2)n(-c2ccc(OC)nc2)n1
137 to 138 °C
CCN(C)C(=O)c1cc(-c2ccc(OCCO)cc2)n(-c2ccc(OC)nc2)n1
110 to 111 °C
COc1ccc(-n2nc(Cl)cc2-c2ccc(OCCNS(=O)(=O)CCO)cc2)cc1
139.1 to 139.4 °C
COc1ccc(-n2nc(Cl)cc2-c2ccc(OCCNS(C)(=O)=O)cc2)cc1
117 to 119 °C

Retrieve melting point measured for CCOCCOc1cc(-c2ccc(OCCNC(N)=O)cc2)n(-c2ccc(OC)cc2)n1 and print it.
124.1 to 124.2 °C

Retrieve melting point measured for COc1ccc(-n2nc(OC(C)C)cc2-c2ccc(OCCNC(N)=O)cc2)cn1 and print it.
120 °C

Retrieve melting point measured for COc1ccc(-n2nc(C(=O)C(C)C)cc2-c2ccc(OCCN)cc2)cn1.Cl.Cl and print it.
156 to 161 °C

Retrieve melting point measured for COc1ccc(-n2nc(C(=O)C3CC3)cc2-c2ccc(OCCNC(N)=O)cc2)cc1 and print it.
136 to 137 °C

Retrieve melting point measured for COc1ccc(-n2nc(OCC(F)(F)F)cc2-c2ccc(OCCNC(N)=O)cc2)cc1 and print it.
130 to 132 °C

Retrieve melting point measured for CCOCCOc1cc(-c2ccc(OCCNS(C)(=O)=O)cc2)n(-c2ccc(OC)cc2)n1 and print it.
116.3 to 116.4 °C

Retrieve melting point measured for COc1ccc(-n2nc(C(C)C)cc2-c2ccc(CNC(N)=O)cc2)cn1 and print it.
139 to 144 °C

Retrieve melting point measured for C=C(C)c1cc(-c2ccc(OCCNS(C)(=O)=O)cc2)n(-c2ccc(OC)nc2)n1 and print it.
96 to 99 °C
